test system: P12-Ichikawa; assay: cell viability relative to DMSO control; higher = less cytotoxic; conditions: HPLM + 10% dialyzed FBS; 48 h; 46.1 µM
Friendly reminder: cell viability below 40% is 1, at or above is 0.

- COMPOUND: "O=C1N\\N=C(\\C[C@@H]2CCN(C2)C(=O)C3CC3)N1C4=CC=C(C=C4)C5=CC=C6OC=CC6=C5"
  CAT: 0
- COMPOUND: "CC(C)C1=N[N](C\\2=C1C(=O)N\\C(=N2)CC3=CC=C(OCCO)C=C3)C4=C(Cl)C=CC=C4Cl"
  CAT: 1
- COMPOUND: "COC(=O)Nc1nc2cc(Sc3ccccc3)ccc2[nH]1"
  CAT: 1
- COMPOUND: "CN1CCN(CC1)C/2=N/C3=CC=CC=C3NC4=C2C=C(C)S4"
  CAT: 0
- COMPOUND: "COc1ccc(-c2cc3c(C)nc(N)nc3n([C@H]3CC[C@H](OCCO)CC3)c2=O)cn1"
  CAT: 0
- COMPOUND: "CN1C(=O)\\C(=C/C2=C1N=C(NC3CCOCC3)N=C2)OC4=C(F)C=C(F)C=C4"
  CAT: 0
- COMPOUND: "Cc1ccc([S+](=O)([O-])NC(=O)NN2CC3CCCC3C2)cc1 (configuration not stated)"
  CAT: 1
- COMPOUND: "Cc1n[nH]c(C)c1Cc1sc2c(c1C(=O)N1C[C@H](O)CO1)c(=O)n(C)c(=O)n2CC(C)C"
  CAT: 0
- COMPOUND: "N[S+](=O)([O-])c1cc2c(cc1Cl)NCN[S+]2(=O)[O-]"
  CAT: 0
- COMPOUND: "CC(=O)O[C@@]12CO[C@@H]1C[C@H](O)[C@]3(C)[C@@H]2[C@H](OC(=O)C4=CC=CC=C4)[C@]5(O)C[C@H](O)/C(=C(/[C@@H](O)C3=O)C5(C)C)C"
  CAT: 1
- COMPOUND: "CCc1nc(C(N)=O)c(Nc2ccc(N3CCC(N4CCN(C)CC4)CC3)c(OC)c2)nc1NC1CCOCC1"
  CAT: 0
- COMPOUND: "CC[P](CC)(CC)=[Au][S][C@@H]1O[C@H](COC(C)=O)[C@@H](OC(C)=O)[C@H](OC(C)=O)[C@H]1OC(C)=O"
  CAT: 1
- COMPOUND: "N#C[C@@H]1C[C@@H]2C[C@@H]2N1C(=O)[C@@H](N)C12CC3CC(CC(O)(C3)C1)C2"
  CAT: 0
- COMPOUND: "CC1(C)NC(=O)N(c2ccc([N+](=O)[O-])c(C(F)(F)F)c2)C1=O"
  CAT: 0
- COMPOUND: "CCNC(=O)c1noc(-c2cc(C(C)C)c(O)cc2O)c1-c1ccc(CN2CCOCC2)cc1"
  CAT: 0
- COMPOUND: "C=C1C(=O)O[C@@H]2[C@H]3O[C@]3(C)CC/C=C(\\C)CC[C@@H]12"
  CAT: 1
- COMPOUND: "CC/C(=C(\\c1ccccc1)c1ccc(OCCN(C)C)cc1)c1ccccc1"
  CAT: 0
- COMPOUND: "COc1c(C)c2c(c(O)c1C/C=C(\\C)CCC(=O)OCCN1CCOCC1)C(=O)OC2"
  CAT: 1
- COMPOUND: "OCCN1CCN(CCCN2c3ccccc3Sc3ccc(C(F)(F)F)cc32)CC1"
  CAT: 1
- COMPOUND: "Oc1ccc(C2CNCCc3c2cc(O)c(O)c3Cl)cc1 (configuration not stated)"
  CAT: 0
- COMPOUND: "CNC(=O)c1cc(COc2nnc(Nc3ccc(Cl)cc3)c3ccoc23)ccn1"
  CAT: 0
- COMPOUND: "CNC(=O)c1ccccc1Sc1ccc2c(/C=C/c3ccccn3)n[nH]c2c1"
  CAT: 1
- COMPOUND: "COc1ccc(CC2SC(=O)NC2=O)cc1C(=O)NCc1ccc(C(F)(F)F)cc1 (configuration not stated)"
  CAT: 0
- COMPOUND: "CCCCc1oc2ccccc2c1C(=O)c1cc(I)c(OCCN(CC)CC)c(I)c1"
  CAT: 0
- COMPOUND: "O=C(O)CCCc1ccc(N(CCCl)CCCl)cc1"
  CAT: 1
- COMPOUND: "NC(=O)Cc1cccc(C(=O)c2ccccc2)c1N"
  CAT: 0
- COMPOUND: "NC/1=N/C(=O)C2=C([NH]C=C2CCC3=CC=C(C=C3)C(=O)N[C@@H](CCC(O)=O)C(O)=O)N1"
  CAT: 1
- COMPOUND: "CCOC(=O)c1c(/C(C#N)=C\\N)c2ccc(Cl)c(Cl)c2n1C"
  CAT: 0
- COMPOUND: "OC[C@H]1O[C@H](C[C@@H]1O)N2\\C=C(\\I)C(=O)NC2=O"
  CAT: 0
- COMPOUND: "CC(C)(OCc1nn(Cc2ccccc2)c2ccccc12)C(=O)O"
  CAT: 0
- COMPOUND: "CCOC\\1=C(/C(=O)NC2=CC=C(OC3=C(Cl)C(=NC=C3)N)C(=C2)F)C(=O)N(\\C=C1)C4=CC=C(F)C=C4"
  CAT: 1
- COMPOUND: "COc1ccccc1OCC(O)CN1CCN(CC(=O)Nc2c(C)cccc2C)CC1 (configuration not stated)"
  CAT: 0
